- Tested on: Mycobacterium tuberculosis
- TEST METHOD NOTES: Antimycobacterial activity against Mycobacterium tuberculosis H37Rv My 331/88 after 21 days
- Assay type: functional
- ASSAY SETUP: H37Rv My 331/88, 504 h
Task for the reader: assign each of the following compounds its reported MIC.

Exam item: So what's the measured MIC for this one? CCOP(=O)(OCC)Oc1cc(Cl)ccc1C(=O)Nc1cccc(C(F)(F)F)c1
Marked response: 4 µM

Exam item: So what's the measured MIC for this one? CCOP(=O)(OCC)Oc1ccc(Br)cc1C(=O)Nc1cccc(C(F)(F)F)c1
Marked response: 2 µM

Exam item: So what's the measured MIC for this one? CCOP(=O)(OCC)Oc1cc(Cl)ccc1C(=O)Nc1ccc(F)cc1
Marked response: 16 µM

Exam item: So what's the measured MIC for this one? CCOP(=O)(OCC)Oc1cc(Cl)ccc1C(=O)Nc1ccc(Cl)cc1
Marked response: 4 µM

Exam item: So what's the measured MIC for this one? CCOP(=O)(OCC)Oc1ccc(Cl)cc1C(=O)Nc1ccc(Cl)cc1
Marked response: 4 µM

Exam item: So what's the measured MIC for this one? Nc1ccc(C(=O)O)c(O)c1 [AMINOSALICYLIC ACID]
Marked response: 62.5 µM

Exam item: So what's the measured MIC for this one? CCOP(=O)(OCC)Oc1ccc(Br)cc1C(=O)Nc1ccc(F)cc1
Marked response: 8 µM

Exam item: So what's the measured MIC for this one? CCOP(=O)(OCC)Oc1ccc(Cl)cc1C(=O)Nc1ccc(C(F)(F)F)cc1
Marked response: 1 µM

Exam item: So what's the measured MIC for this one? CCOP(=O)(OCC)Oc1ccc(Cl)cc1C(=O)Nc1cccc(Cl)c1
Marked response: 4 µM

Exam item: So what's the measured MIC for this one? CCOP(=O)(OCC)Oc1ccc(Br)cc1C(=O)Nc1ccc(C(F)(F)F)cc1
Marked response: 1 µM
